# System: MS2 coat protein
# TEST_METHOD_NOTES: apparent KD of MS2 coat protein; designed switch direction (-1 OFF switch, 1 ON switch): -1; higher = weaker reporter binding
# CONDITION_SUMMARY: Eterna round: R95; input ligand: none
Listed here are sequences together with their documented apparent KD of MS2 coat protein.
Put down the number, then write its unit next to it.

Examples from the recorded data:
SEQ	apparent KD of MS2 coat protein
AAGUACCGUCACGAUAGUGAUGGUACAACAAGCAAAUACACAUGAGGAUCACCCAUGUCCUCUUUUGCUCGUCUUGU [Sensor 3 - 0] (puzzle: Sensor v3, turn-off variant 2)	767 nM
CGUGACUGAGGAUAUCUAUGAUAUCACAUGAGGAUCACCCAUGUCCAGCGAAAGCUGGAGGGAGAAGGCAGUCACG [Fiskers Ex 5 - 30] (puzzle: Exclusion 5)	185 nM

Next sequence, apparent KD of MS2 coat protein to be filled in.
Request body: readout apparent KD of MS2 coat protein, system MS2 coat protein, query AAGAAACAUGAGGAUCACCCAUGUGAGGAUAUGAACAAGAAAAGAAAAGAAAGAAGAAUCAGAAGGCACAAAGG [salish99-ex1_r3_047] (puzzle: Exclusion 1) . Return the value.
84.7 nM

---

Listed here are sequences together with their documented apparent KD of MS2 coat protein.
# System: MS2 coat protein
# TEST_METHOD_NOTES: apparent KD of MS2 coat protein; designed switch direction (-1 OFF switch, 1 ON switch): -1; higher = weaker reporter binding
# CONDITION_SUMMARY: input ligand: none

Examples from the recorded data:
SEQ	apparent KD of MS2 coat protein
GUUCGGGCAGGAUAUACAUGAGGAUCACCCAUGUGUGUCCAUACGCGUGAGUCUUCGUGUAGAAGGGUUUGGGC [-30.5, -27.8 kcal, 20% A] (Eterna round: R97, puzzle: Exclusion 3)	21.1 nM
ACAUUACAUGAGGAUCACCCAUGUGAGGAUAUGGUGCGGUAGUGUCCUGUCGCGUACACCAGAAGGCGCGGGUG [1st #47] (Eterna round: R97, puzzle: Exclusion 1)	258 nM
ACGCGUGGCUAGGAUAUGCAGCUAUCUGGCCAGGCAGAAGGAGCCACAUGAGGAUCACCCAUGUGGUGAUCCUC [eternacac ex6r4 sub3] (Eterna round: R97, puzzle: Exclusion 6)	11.9 nM
CAUAGUCUAGGAUAUUCACCUCUAUACAUGAGGAUCACCCAUGUCAAUGGCAGAUGACCAGAAGAAGGAGAAGUGG [Eternabot (L1) Solution 16] (Eterna round: R97, puzzle: Exclusion 5)	84.8 nM

Next sequence, apparent KD of MS2 coat protein to be filled in.
Any idea what its apparent KD of MS2 coat protein is? The sequence is CACCUACAUGAGGAUCACCCAUGUCAGGAUAUCUUUGCUAAUAUGAAUAGAUGCGUAAAGAGAAGGGACAUUUC [EX1 C.8] (Eterna round: R97, puzzle: Exclusion 1)
14.9 nM

---

# System: MS2 coat protein
# TEST_METHOD_NOTES: apparent KD of MS2 coat protein; higher = weaker reporter binding
# CONDITION_SUMMARY: Eterna round: R107; input ligand: arginine 13.2 mM
Tick criterion met if apparent KD of MS2 coat protein is 20 nM or greater. Tick criterion not met if apparent KD of MS2 coat protein is less than 20 nM.

Worked examples follow.
SEQ	TESTED_SYSTEM	ASSIGNED_LABEL
UGAUGGUACGGAAGGAGCGUGUAAGAACAAGAACAUGAGGAUCACCCAUGUAUUAAUUUAACACAGGUAGGUCGCCGAGUUAUUG [11.G]	MS2 coat protein	criterion not met
AGCAUGUUAUCAGAUACCAGACAUCUUUUAAAACAUAUUACAUGAGGAUCACCCAUGUUGGUCCCUUGGCAGCUGAAAUAUUUCA [JR_Nu_SSTheophyB_Sub024]	MS2 coat protein	criterion met
AAAAUAAUGGCGGCCGCCACUAACUCAUAUACAUCAUGUACAUGAGGAUCACCCAUGUAGGUGUAUAGGACCGGGCCAUAAUUAA [39MS split4]	MS2 coat protein	criterion not met
CUAGGAAACUAGUAAGGGUGGUAUUGAGAUACCAGUACAGAAAUGUACCCUUGGCAGCUCACUGCAACAUGAGGAUCACCCAUGU [Ex Theophylline A 12]	MS2 coat protein	criterion met
CUGUACAUCUCGGCCGCCACUGACAUGAGGAUCACCCAUGUAGUGCCGAUGAGAGACUUAUCGGCCAGGACCGGGAGGUGUGCAG [SSTryp B #32]	MS2 coat protein	criterion not met

Now look at this one.
Test whether the sequence UGUAACAUGAGGAUCACCCAUGUGAGUGAUACCAGAUAAGUAGUAGUCCCUUGGCAGCAUAUUGGGCGAGUGUAUAGUCUAUGCG [Same State - Theophylline A (Freestyle 9)] records apparent KD of MS2 coat protein of 20 nM or higher.
criterion met

---

# Tested on: MS2 coat protein
# TEST_METHOD_NOTES: apparent KD of MS2 coat protein; higher = weaker reporter binding
# CONDITION_SUMMARY: Eterna round: R107; input ligand: theophylline 20 uM
Tick y if apparent KD of MS2 coat protein is 40 nM or greater. Tick n if apparent KD of MS2 coat protein is less than 40 nM.

SEQ	ASSIGNED_LABEL
AAUGUAUGGCACAUGAGGAUCACCCAUGUGCGAGGACCGGUACGGCCGCCACUCGGUCCUGGAUUCUUAUUACUAUACAUUAAUG [XTryp A #16]	n

Now look at this one.
Test whether the sequence GCAUCCUAGUCGGCCGCCACUGCAUGUAGUUUUGCUACAUGGAAACAUGAGGAUCACCCAUGUAGCAGGACCGGGACUAGGAUGC [(Trp1)-(TM)''-(TM)'-(Ms2)-(Trp2)_Design7] records apparent KD of MS2 coat protein of 40 nM or higher.
n

---

Listed here are sequences together with their documented apparent KD of MS2 coat protein.
# Tested on: MS2 coat protein
# TEST_METHOD_NOTES: apparent KD of MS2 coat protein; designed switch direction (-1 OFF switch, 1 ON switch): -1; higher = weaker reporter binding
# CONDITION_SUMMARY: input ligand: microRNA oligo, concentration not stated
Put down the number, then write its unit next to it.

Examples from the recorded data:
SEQ	apparent KD of MS2 coat protein
UUGUUGUGUGUAGGAUAUGCAUAUUAUUAUUAUGCAGAAGGACAUGAGGAUCACCCAUGUGUAUUAUUAUUAUAUAUUAUAUAU [Title] (Eterna round: R96, puzzle: Exclusion NG 1)	18.3 nM
CAGUACUGAGGAUAUACAUGAGGAUCACCCAUGUGUCCCGGCUAGGAAACUAGCAAAAGUAGAAGGCAGUACUG [Fiskers Ex 3 828 mod 2] (Eterna round: R96, puzzle: Exclusion 3)	21.6 nM

Next sequence, apparent KD of MS2 coat protein to be filled in.
Any idea what its apparent KD of MS2 coat protein is? The sequence is AUUGUUUAUGUAGGAUAUGCCUGGCGUGCCUUUGCAGAAGGACAUGAGGAUCACCCAUGUAUUGCGGUCUGCGUUCAGAUCGCC [salish99_ExNG1_r4_035] (Eterna round: R96, puzzle: Exclusion NG 1)
16.7 nM

---

# Tested on: MS2 coat protein
# TEST_METHOD_NOTES: apparent KD of MS2 coat protein, switch ON state; designed switch direction (-1 OFF switch, 1 ON switch): 1; higher = weaker reporter binding
# CONDITION_SUMMARY: FMN input: 0 or 200 uM; Eterna round: R93 (includes R88 designs)
Tick 1 (yes) if apparent KD of MS2 coat protein is 20 nM or greater. Tick 0 (no) if apparent KD of MS2 coat protein is less than 20 nM.

Worked examples follow.
SEQ	TESTED_SYSTEM	ASSIGNED_LABEL
GUAUAUAUAAGACAGGAUAUCCGAAAGUAAACAUGAGGAUCACCCAUGUAAAGAAAGAAACUCAUGGAGAAGGGUCAAUAUAUAC [Mat - Same State 2 - Tesla mod - D83]	MS2 coat protein	1 (yes)
CGAAAGGAGAGAGAGGAUAUCCAAAGGAAAACAUGAGGAUCACCCAUGUAGAAGGUAGGAGAUUGGGAGAAGGCUCAAGCUAAAC [salish99-ss2-158]	MS2 coat protein	1 (yes)
AAAAAACAUGAGGAUCACCCAUGUGCAAAAUUCGCAGGAUAUUCUUUUUUUAAAUGAGAGGGAGAAGGGUGUAAAA [Nob's Hobby 21 - Jieux - Same State 1]	MS2 coat protein	1 (yes)

Test whether the sequence GAAAAACAUGAGGAUCACCCAUGUAGAAAUAUGGGAGGAUAUACUAUGACGAAAGUCAAAGUAGAAGGUCUAAAAG [JL S1 M-MoE mod 6 In the Read] records apparent KD of MS2 coat protein of 20 nM or higher.
1 (yes)

Test whether the sequence GAAAAACAUGAGGAUCACCCAUGUAGAAAUAUGGGAGGAUAUACAAAGACGAAAGUCAAAGUAGAAGGCCCAUAAG [Starry Same State 1.6 (mat747 round 1 mod)] records apparent KD of MS2 coat protein of 20 nM or higher.
0 (no)

Test whether the sequence AGACAUAACAGAGAGGAUAUCCAAUAGAAAACAUGAGGAUCACCCAUGUGAAAGAAAAUAAAAUGGGAGAAGGCUCACAUACAGA [Topaz 39] records apparent KD of MS2 coat protein of 20 nM or higher.
0 (no)

Each recorded value in this set is attributed to the supplement of paper PMC9170038.
